# Test system: SF-295 CNS
# procedure_text: NCI tumour cell line growth inhibition, 48 h
readout_label: TGI

Use the examples below as a reference point.
1. CC(=O)[O][Ga]([Br])[O]C(C)=O | > 100 µM
2. O=C1/C(=C/c2cccc(Br)c2)Cc2ccccc21 | > 100 µM
3. CCN1C(=O)N(CC)C2C1NN=c1s/c(=C3\C(=O)N(CC(C)(C)C)c4ccccc43)c(=O)n12 (centres undefined) | 12.6 µM

Q) # lookup: TGI of Cc1cc(C)nc(NS(=O)(=O)c2ccc(NC(=O)c3cccc4c(Nc5ccc(S(N)(=O)=O)cc5)c5ccccc5nc34)cc2)n1
A) > 100 µM

----------
# Tested on: MDA-N
# procedure_text: NCI tumour cell line growth inhibition, 48 h
// reported TGI for each item listed

Use the examples below as a reference point.
1) Cn1c(=O)oc2cc(C(O)CN3CCN(Cc4ccccn4)CC3)c(Cl)cc21 (stereo not given) | > 100 µM
2) Cc1cc2c(cc1C)C(=O)C1(C2)Cc2c(C)ccc(C)c2C1=O (stereo not given) | > 100 µM
3) [N-]=[N+]=Nc1cc(=O)n2c3c(cccc13)CCC2 | > 100 µM
4) S=C1SSC2N=CC=CC12 (stereo not given) | > 100 µM
5) Cc1cc(C)c2c(c1)C/C(=C\c1ccccc1C(=O)O)C2=O | > 100 µM

Q) # lookup: TGI of CC(=O)O/C(=C1\C[C@H]2[C@@H]3CC=C4C[C@@H](OC(C)=O)CC[C@]4(C)[C@H]3CC[C@]2(C)C1=O)C(F)(F)F
A) 14.9 µM

Q) Also check Cc1c(O)c(OC2OC(CO)C(O)C(O)C2O)cc2c1CC[C@@H]1C2(C)C(=O)C[C@]2(C)[C@@H]([C@@](C)(O)C(=O)CCC(C)(C)O)[C@H](O)C[C@@]12C (stereo not given in full)
A) > 100 µM

Q) Also check CC(=O)N(CCc1ccccc1)C(C#N)c1ccccc1 (stereo not given)
A) > 100 µM

Q) Also check O=C(Nc1nncs1)NS(=O)(=O)n1c(=S)sc2ccccc21
A) > 100 µM

Q) Also check COC(=O)[C@H](Cc1c[nH]c2ccccc12)NC(=O)c1ccc(CNC(=O)/C(C)=C/c2ccccc2)cc1
A) 40.3 µM

Q) Also check CC(C)CC(NC(=O)C(CI)Cc1ccccc1)C(=O)Nc1ccccc1 (stereo not given)
A) > 100 µM

----------
# Test system: NCI-H226 lung
# procedure_text: NCI tumour cell line growth inhibition, 48 h
readout_label: TGI

Use the examples below as a reference point.
1) Cc1cc2c(cc1C)C(=O)C1(C2)Cc2c(C)ccc(C)c2C1=O (stereo not drawn) | > 100 µM
2) CCCOc1ccc2sc(NC(=O)OC)nc2c1 | > 100 µM

Q) # lookup: TGI of O=S(=O)(c1ccccc1)C1CN2OC1(S(=O)(=O)c1ccccc1)CC2c1ccc(Br)cc1 (stereo not drawn)
A) > 100 µM

----------
# Test system: NCI-H460 lung
# procedure_text: NCI tumour cell line growth inhibition, 48 h
readout_label: TGI (µM)
Give the quantity in µM, number only.

1. O=C(Nc1ccc(F)cc1)c1cc(S(=O)(=O)Nc2nc3ccccc3o2)c(SCc2ccccc2)cc1Cl | 43.5

Next item in the queue.
Q) Provide value of TGI for this record tested with NCI-H460 lung: COc1ccc2[nH]c3c(c2c1)CC(=S)N1CCCC(CC3=O)C1 (stereo not given)
A) 92.6
